Each recorded value in this set is attributed to BigSolDB 2.1.

Condition Summary: in n-butanol, 338.32 K
Measured Endpoint: solubility (mole fraction)

# solubility (mole fraction) lookup, item "COC(=O)/C=C(\C)N[C@@H](C(=O)[O-])c1ccc(O)cc1.[K+]"
0.000304

* * *

Condition Summary: in n-butanol, 323.25 K
Measured Endpoint: solubility (mole fraction)

# solubility (mole fraction) lookup, item "COC(=O)/C=C(\C)N[C@@H](C(=O)[O-])c1ccc(O)cc1.[K+]"
0.000207

* * *

Condition Summary: in n-propanol, 313.05 K
Measured Endpoint: solubility (mole fraction)
Answers are plain numbers.

# solubility (mole fraction) lookup, item "COC(=O)/C=C(\C)N[C@@H](C(=O)[O-])c1ccc(O)cc1.[K+]"
0.000256

* * *

Condition Summary: in n-propanol, 303.05 K
Measured Endpoint: solubility (mole fraction)
Answers are plain numbers.

# solubility (mole fraction) lookup, item "COC(=O)/C=C(\C)N[C@@H](C(=O)[O-])c1ccc(O)cc1.[K+]"
0.000206

* * *

Condition Summary: in n-pentanol, 338.13 K
Measured Endpoint: solubility (mole fraction)

# solubility (mole fraction) lookup, item "COC(=O)/C=C(\C)N[C@@H](C(=O)[O-])c1ccc(O)cc1.[K+]"
0.000252

* * *

Condition Summary: in n-pentanol, 343.35 K
Measured Endpoint: solubility (mole fraction)
One number for each entry.

# solubility (mole fraction) lookup, item "COC(=O)/C=C(\C)N[C@@H](C(=O)[O-])c1ccc(O)cc1.[K+]"
0.000279

* * *

Condition Summary: in n-propanol, 338.34 K
Measured Endpoint: solubility (mole fraction)

# solubility (mole fraction) lookup, item "COC(=O)/C=C(\C)N[C@@H](C(=O)[O-])c1ccc(O)cc1.[K+]"
0.000427

* * *

Condition Summary: in n-propanol, 333.25 K
Measured Endpoint: solubility (mole fraction)
Answers are plain numbers.

# solubility (mole fraction) lookup, item "COC(=O)/C=C(\C)N[C@@H](C(=O)[O-])c1ccc(O)cc1.[K+]"
0.000382

* * *

Condition Summary: in isopropanol, 343.25 K
Measured Endpoint: solubility (mole fraction)
One number for each entry.

# solubility (mole fraction) lookup, item "COC(=O)/C=C(\C)N[C@@H](C(=O)[O-])c1ccc(O)cc1.[K+]"
0.000225

* * *

Condition Summary: in sec-butanol, 318.36 K
Measured Endpoint: solubility (mole fraction)
One number for each entry.

# solubility (mole fraction) lookup, item "COC(=O)/C=C(\C)N[C@@H](C(=O)[O-])c1ccc(O)cc1.[K+]"
9.62e-05

* * *

Condition Summary: in isopropanol, 318.26 K
Measured Endpoint: solubility (mole fraction)
Numbers only.

# solubility (mole fraction) lookup, item "COC(=O)/C=C(\C)N[C@@H](C(=O)[O-])c1ccc(O)cc1.[K+]"
0.000112

* * *

Condition Summary: in methanol, 308.19 K
Measured Endpoint: solubility (mole fraction)
One number for each entry.

# solubility (mole fraction) lookup, item "COC(=O)/C=C(\C)N[C@@H](C(=O)[O-])c1ccc(O)cc1.[K+]"
0.00424

* * *

Condition Summary: in n-butanol, 293.15 K
Measured Endpoint: solubility (mole fraction)
One number for each entry.

# solubility (mole fraction) lookup, item "COC(=O)/C=C(\C)N[C@@H](C(=O)[O-])c1ccc(O)cc1.[K+]"
9.97e-05

* * *

Condition Summary: in isopropanol, 328.19 K
Measured Endpoint: solubility (mole fraction)
Numbers only.

# solubility (mole fraction) lookup, item "COC(=O)/C=C(\C)N[C@@H](C(=O)[O-])c1ccc(O)cc1.[K+]"
0.00015
